Below: a set of entries, each annotated with reported log10(fold difference in affinity vs original).
# SYSTEM_UNDER_TEST: binding partner of C5A (XPA23)
# PROTOCOL: Biacore
ENDPOINT: log10(fold difference in affinity vs original) (log10 of the value in fold)

BINDER: C5A (XPA23) VH K31L (antibody, V domains shown) VH: EVQLLESGGGLVQPGGSLRLSCAASGFTFSLYFMFWVRQAPGKGLEWVSVISPSGGMTRYADSVKGRFTISRDNSKNTLYLQMNSLRAEDTAVYYCARVGYGGNSDYWGQGTLVTVSS VL: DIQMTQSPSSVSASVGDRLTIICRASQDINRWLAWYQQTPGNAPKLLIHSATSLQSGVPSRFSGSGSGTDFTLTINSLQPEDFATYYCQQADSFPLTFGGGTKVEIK
VALUE_REPORTED: 0.03

BINDER: C5A (XPA23) VH S30T (antibody, V domains shown) VH: EVQLLESGGGLVQPGGSLRLSCAASGFTFTKYFMFWVRQAPGKGLEWVSVISPSGGMTRYADSVKGRFTISRDNSKNTLYLQMNSLRAEDTAVYYCARVGYGGNSDYWGQGTLVTVSS VL: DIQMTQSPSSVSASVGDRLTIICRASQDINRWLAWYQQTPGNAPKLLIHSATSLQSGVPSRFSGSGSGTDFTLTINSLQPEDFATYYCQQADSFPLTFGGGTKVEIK
VALUE_REPORTED: -1.22

BINDER: C5A (XPA23) VH S52V (antibody, V domains shown) VH: EVQLLESGGGLVQPGGSLRLSCAASGFTFSKYFMFWVRQAPGKGLEWVSVIVPSGGMTRYADSVKGRFTISRDNSKNTLYLQMNSLRAEDTAVYYCARVGYGGNSDYWGQGTLVTVSS VL: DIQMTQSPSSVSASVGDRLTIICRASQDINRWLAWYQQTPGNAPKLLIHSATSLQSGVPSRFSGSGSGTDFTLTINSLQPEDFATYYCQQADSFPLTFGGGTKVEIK
VALUE_REPORTED: -1.40

BINDER: C5A (XPA23) VH Y101I (antibody, V domains shown) VH: EVQLLESGGGLVQPGGSLRLSCAASGFTFSKYFMFWVRQAPGKGLEWVSVISPSGGMTRYADSVKGRFTISRDNSKNTLYLQMNSLRAEDTAVYYCARVGIGGNSDYWGQGTLVTVSS VL: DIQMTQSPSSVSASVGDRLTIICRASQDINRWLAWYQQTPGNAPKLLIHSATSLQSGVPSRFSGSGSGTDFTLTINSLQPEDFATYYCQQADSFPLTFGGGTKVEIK
VALUE_REPORTED: -0.08

BINDER: C5A (XPA23) VH G56L (antibody, V domains shown) VH: EVQLLESGGGLVQPGGSLRLSCAASGFTFSKYFMFWVRQAPGKGLEWVSVISPSGLMTRYADSVKGRFTISRDNSKNTLYLQMNSLRAEDTAVYYCARVGYGGNSDYWGQGTLVTVSS VL: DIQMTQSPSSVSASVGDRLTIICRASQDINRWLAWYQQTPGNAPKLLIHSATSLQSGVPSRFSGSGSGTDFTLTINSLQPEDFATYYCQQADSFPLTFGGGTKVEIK
VALUE_REPORTED: 0.15
